Emax listing for selected compounds.
biological target: human F508del-CFTR (Homo sapiens, UniProt P13569, DEL508-508); assay: F508del-CFTR cell surface expression (corrector activity), DiscoveRx ß-galactosidase complementation chemiluminescence assay in recombinant U2OS cell line; conditions: U2OS, in relation to Emax of corrector lumacaftor (=100%); arithmetic mean values
Sequence (P13569 with tags, fused parts or gaps DEL508-508): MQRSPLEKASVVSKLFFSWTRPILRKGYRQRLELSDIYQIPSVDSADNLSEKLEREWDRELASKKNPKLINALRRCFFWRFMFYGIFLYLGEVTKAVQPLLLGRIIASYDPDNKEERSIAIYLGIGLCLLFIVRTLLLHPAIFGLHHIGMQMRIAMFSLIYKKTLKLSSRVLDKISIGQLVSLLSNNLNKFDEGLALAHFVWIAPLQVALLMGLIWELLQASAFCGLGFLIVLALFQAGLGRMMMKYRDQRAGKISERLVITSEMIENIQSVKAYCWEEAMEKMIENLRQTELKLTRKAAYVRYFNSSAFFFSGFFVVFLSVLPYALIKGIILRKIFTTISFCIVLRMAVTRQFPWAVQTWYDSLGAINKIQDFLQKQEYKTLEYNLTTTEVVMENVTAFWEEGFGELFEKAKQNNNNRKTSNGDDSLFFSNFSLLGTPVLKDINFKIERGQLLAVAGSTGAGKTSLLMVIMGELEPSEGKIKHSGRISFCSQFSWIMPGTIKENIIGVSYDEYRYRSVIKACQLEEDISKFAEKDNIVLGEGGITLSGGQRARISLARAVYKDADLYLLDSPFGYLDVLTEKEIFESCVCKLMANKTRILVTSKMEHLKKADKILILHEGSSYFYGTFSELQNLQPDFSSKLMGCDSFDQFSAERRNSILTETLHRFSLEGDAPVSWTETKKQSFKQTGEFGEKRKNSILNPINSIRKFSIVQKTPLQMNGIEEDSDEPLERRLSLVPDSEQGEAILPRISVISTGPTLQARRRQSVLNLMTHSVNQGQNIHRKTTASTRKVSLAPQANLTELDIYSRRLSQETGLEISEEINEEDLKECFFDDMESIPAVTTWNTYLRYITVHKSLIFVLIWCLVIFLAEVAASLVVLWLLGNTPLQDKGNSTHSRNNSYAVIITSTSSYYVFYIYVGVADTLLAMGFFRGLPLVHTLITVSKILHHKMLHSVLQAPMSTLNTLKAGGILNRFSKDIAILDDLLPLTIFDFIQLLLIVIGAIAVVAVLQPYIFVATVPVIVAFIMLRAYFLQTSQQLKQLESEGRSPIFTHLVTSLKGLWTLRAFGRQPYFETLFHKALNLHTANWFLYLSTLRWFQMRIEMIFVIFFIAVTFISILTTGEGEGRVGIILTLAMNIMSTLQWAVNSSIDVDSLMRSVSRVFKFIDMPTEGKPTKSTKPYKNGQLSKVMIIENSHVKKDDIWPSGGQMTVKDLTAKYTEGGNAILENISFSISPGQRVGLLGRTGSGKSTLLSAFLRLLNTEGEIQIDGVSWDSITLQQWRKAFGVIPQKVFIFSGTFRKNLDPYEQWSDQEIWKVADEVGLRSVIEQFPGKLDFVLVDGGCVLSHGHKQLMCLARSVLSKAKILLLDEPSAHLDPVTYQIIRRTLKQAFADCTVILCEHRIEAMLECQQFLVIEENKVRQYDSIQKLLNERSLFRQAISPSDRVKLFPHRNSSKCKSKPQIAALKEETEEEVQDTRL
Just the number in %, nothing appended.

Solved cases below.
[[record]]
smiles_representation = "COc1cncc(S(=O)(=O)N2CCN3C(=O)[C@H](CC(C)C)N(C)C(=O)C[C@@H](C(=O)NCCc4cc(C)no4)NC(=O)c4c(ccc5ccccc45)OC[C@@H](Cc4ccccc4)NC(=O)[C@H]3C2)c1"
obs_value = 253

[[record]]
smiles_representation = "COc1cccc(CCNC(=O)[C@@H]2CC(=O)N(C)[C@@H](CC(C)C)C(=O)N(C)C3(CC3)C(=O)N[C@H](Cc3ccccc3)COc3ccc4c(c3C(=O)N2)OCC4)c1"
obs_value = 220

[[record]]
smiles_representation = "COc1cccc(CCNC(=O)[C@@H]2CC(=O)N(C)[C@@H](CC(C)C)C(=O)N(C)CC(=O)N[C@H](Cc3ccccc3)COc3ccc4ccccc4c3C(=O)N2)c1"
obs_value = 233


Exam item: Give human F508del-CFTR (Homo sapiens, UniProt P13569, DEL508-508) Emax for the following compound: `CC(C)C[C@H]1C(=O)N(C)[C@H](CC2CCCCC2)C(=O)N[C@H](Cc2ccccc2)COc2cnc3ccc(F)cc3c2C(=O)N[C@H](C(=O)NCCc2cc(C3CC3)no2)CC(=O)N1C`
Marked response: 306

Exam item: Give human F508del-CFTR (Homo sapiens, UniProt P13569, DEL508-508) Emax for the following compound: `CC(C)C[C@H]1C(=O)N2CCCC[C@@H]2C(=O)N[C@H](Cc2ccccc2)COc2ccc3ncccc3c2C(=O)N[C@H](C(=O)NCCc2ccc(-n3nccn3)cc2)CC(=O)N1C`
Marked response: 239

----------
pEC50 listing for selected compounds.
biological target: human F508del-CFTR (Homo sapiens, UniProt P13569, DEL508-508); assay: F508del-CFTR cell surface expression (corrector activity), DiscoveRx ß-galactosidase complementation chemiluminescence assay in recombinant U2OS cell line; details: EC50, F508del-CFTR cell surface expression, U2OS cell line, 16h compound incubation; geomean values;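 also: U2OS cells co-expressing ProLink-tagged F508del-CFTR and a membrane-anchored enzyme acceptor, where more surface CFTR restores β-galactosidase activity measured by chemiluminescence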
Scale explanation: pEC50 corresponds to minus log10 of a concentration expressed in moles per litre.

[[record]]
smiles_representation = "Cc1onc(CCNC(=O)[C@@H]2CC(=O)N(C)[C@@H](CC(C)C)C(=O)N3CCOC[C@@H]3C(=O)N[C@H](Cc3ccccc3)COc3ccc4ccccc4c3C(=O)N2)c1C"
obs_value = 6.12

[[record]]
smiles_representation = "COc1cccc(CCNC(=O)[C@@H]2CC(=O)N(C)[C@@H](CC(C)C)C(=O)N(CCC3CCCCC3)CC(=O)N[C@H](Cc3ccccc3)COc3ccc(Cl)cc3C(=O)N2)c1"
obs_value = 6.99

[[record]]
smiles_representation = "COc1cc(CCNC(=O)[C@@H]2CC(=O)N(C)[C@@H](CC(C)C)C(=O)N3CCCC[C@@H]3C(=O)N[C@H](Cc3ccccc3)COc3cnc4ccccc4c3C(=O)N2)ccc1F"
obs_value = 6.33


Exam item: Please supply the value of reported pEC50 for the item `COc1cccc(CCNC(=O)[C@@H]2CC(=O)N(C)[C@@H](CC(C)C)C(=O)N(C)CC(=O)N[C@H](Cc3ccccc3)COc3ccsc3C(=O)N2)c1`
Marked response: 5.90

Exam item: Please supply the value of reported pEC50 for the item `CC(C)C[C@H]1C(=O)N(C)CC(=O)N[C@H](Cc2ccccc2)COc2cc3c(cc2C(=O)N[C@H](C(=O)NCCc2ccc4c(c2)OCCO4)CC(=O)N1C)OCO3`
Marked response: 6.28
